# System Under Test: Dipeptidyl peptidase 4 (Homo sapiens, UniProt P27487)
# Sequence (P27487 whole entry): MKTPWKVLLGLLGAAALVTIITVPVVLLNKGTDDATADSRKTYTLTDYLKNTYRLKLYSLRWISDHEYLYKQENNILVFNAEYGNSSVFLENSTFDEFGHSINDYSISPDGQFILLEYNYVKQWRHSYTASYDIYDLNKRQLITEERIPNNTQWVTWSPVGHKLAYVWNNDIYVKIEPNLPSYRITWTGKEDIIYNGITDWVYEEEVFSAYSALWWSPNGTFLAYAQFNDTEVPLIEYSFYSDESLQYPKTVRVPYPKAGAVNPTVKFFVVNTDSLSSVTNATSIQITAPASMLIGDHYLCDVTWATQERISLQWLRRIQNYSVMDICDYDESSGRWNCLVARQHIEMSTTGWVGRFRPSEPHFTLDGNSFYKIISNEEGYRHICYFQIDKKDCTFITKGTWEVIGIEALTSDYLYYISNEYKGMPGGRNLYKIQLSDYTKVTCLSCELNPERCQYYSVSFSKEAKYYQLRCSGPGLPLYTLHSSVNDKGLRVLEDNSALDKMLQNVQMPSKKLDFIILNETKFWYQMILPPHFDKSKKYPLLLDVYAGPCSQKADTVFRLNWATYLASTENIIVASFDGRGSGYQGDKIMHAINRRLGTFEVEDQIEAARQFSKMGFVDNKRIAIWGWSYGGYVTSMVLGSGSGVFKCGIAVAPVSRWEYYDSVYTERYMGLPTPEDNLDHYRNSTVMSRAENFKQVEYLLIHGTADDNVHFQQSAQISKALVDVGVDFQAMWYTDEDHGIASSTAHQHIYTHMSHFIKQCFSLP
# Assay Method Text: Inhibition of human DPP4 in presence of rat plasma protein
# Type: cell-free
pKi: −log10 of the molar value.

[
  {
    "Compound": "NC1CN(c2cc(-c3cccc(S(=O)(=O)N4CCOCC4)c3)ncn2)CC1c1cc(F)c(F)cc1F (stereo unspecified)",
    "pKi": 8.77
  }
]

###

# Assay Method Text: Cmax in Sprague-Dawley rat at 5 mg/kg, po
# Type: ADME, organism-based
# Parameters: dose 5 mg/kg, route oral
# Experimental Context: in vivo
Measured Cmax, listed per entry.

[
  {
    "Compound": "CS(=O)(=O)c1cccc(-c2ncnc(N3CC(N)C(c4cc(F)c(F)cc4F)C3)n2)c1 (stereo not given)",
    "Cmax, ng/mL": 1970
  },
  {
    "Compound": "NC1CN(c2cc(-c3cccc(C(=O)O)c3)ncn2)CC1c1cc(F)c(F)cc1F (stereo not given)",
    "Cmax, ng/mL": 176
  },
  {
    "Compound": "CN(C)C(=O)c1cccc(-c2cc(N3CC(N)C(c4cc(F)c(F)cc4F)C3)ncn2)c1 (stereo not given)",
    "Cmax, ng/mL": 1270
  },
  {
    "Compound": "NC1CN(c2cc(-c3cccc(S(=O)(=O)N4CCOCC4)c3)ncn2)CC1c1cc(F)c(F)cc1F (stereo not given)",
    "Cmax, ng/mL": 347
  },
  {
    "Compound": "CS(=O)(=O)c1cccc(-c2cc(N3CC(N)C(c4cc(F)c(F)cc4F)C3)ncn2)c1 (stereo not given)",
    "Cmax, ng/mL": 1810
  }
]

###

# Assay Method Text: Cmax in dog at 2.5 mg/kg, po
# Assay type: ADME, organism-based, Canis lupus familiaris
# Set-up: dose 2.5 mg/kg, route oral
# Experimental Context: in vivo

[
  {
    "Molecule": "CS(=O)(=O)c1cccc(-c2ncnc(N3CC(N)C(c4cc(F)c(F)cc4F)C3)n2)c1 (stereo unspecified)",
    "Value Units": "ng/mL",
    "Cmax": 691
  }
]

###

# Tested on: Canis familiaris
# Assay Method Text: AUC in dog at 2.5 mg/kg, po
# Format: ADME, organism-based, Canis lupus familiaris, Plasma
# Design: dose 2.5 mg/kg, route oral
# Experimental Context: in vivo

[
  {
    "Molecule": "CS(=O)(=O)c1cccc(-c2ncnc(N3CC(N)C(c4cc(F)c(F)cc4F)C3)n2)c1 (stereo unspecified)",
    "AUC / ng·h/mL": 12200
  }
]

###

# System Under Test: Prolyl endopeptidase (Homo sapiens)
# Sequence (P48147 whole entry): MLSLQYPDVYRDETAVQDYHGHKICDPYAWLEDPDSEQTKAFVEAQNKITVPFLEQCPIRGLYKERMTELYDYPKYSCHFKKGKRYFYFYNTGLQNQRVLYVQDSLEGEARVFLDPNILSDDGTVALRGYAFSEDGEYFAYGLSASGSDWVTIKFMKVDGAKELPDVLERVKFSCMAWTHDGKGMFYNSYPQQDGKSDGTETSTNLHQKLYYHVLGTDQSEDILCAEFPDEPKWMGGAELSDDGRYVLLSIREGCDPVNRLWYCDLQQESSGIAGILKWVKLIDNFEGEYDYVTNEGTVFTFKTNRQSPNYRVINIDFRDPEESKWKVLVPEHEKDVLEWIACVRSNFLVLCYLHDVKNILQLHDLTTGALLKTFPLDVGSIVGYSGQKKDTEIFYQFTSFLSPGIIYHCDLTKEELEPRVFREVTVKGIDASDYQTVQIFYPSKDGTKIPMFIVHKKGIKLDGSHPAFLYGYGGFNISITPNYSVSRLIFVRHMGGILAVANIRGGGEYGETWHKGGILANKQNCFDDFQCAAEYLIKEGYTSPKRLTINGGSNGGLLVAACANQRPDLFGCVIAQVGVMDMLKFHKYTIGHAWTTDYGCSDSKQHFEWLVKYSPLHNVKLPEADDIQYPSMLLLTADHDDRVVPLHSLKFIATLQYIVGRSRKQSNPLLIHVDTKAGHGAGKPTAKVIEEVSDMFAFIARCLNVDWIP
Reported Endpoint: Ki

[
  {
    "Compound": "CS(=O)(=O)c1cccc(-c2cc(N3CC(N)C(c4cc(F)c(F)cc4F)C3)ncn2)c1 (configuration not stated)",
    "Value Observed": "> 30 µM"
  },
  {
    "Compound": "NC1CN(c2cc(-c3cccc(C(=O)O)c3)ncn2)CC1c1cc(F)c(F)cc1F (configuration not stated)",
    "Value Observed": "> 30 µM"
  }
]

meta.source: ChEMBL document CHEMBL1139138
